system: Staph. epidermidis L147 ATCC 12228; assay: MIC, microbroth dilution; type: cell-based; conditions: inocula 10^4 to 10^5 CFU/ml, Iso-Sensitest broth, 18-24 h, 37° C.
assayReadout: MIC

CNC(=O)CC1NC(=O)c2nc(sc2COC)C(C(C)C)NC(=O)c2csc(n2)-c2ccc(-c3nc(C(=O)NCCSCCC(=O)O)cs3)nc2-c2csc(n2)-c2csc(n2)C(C(O)c2ccccc2)NC(=O)CNC(=O)c2nc1sc2C (stereo not drawn)	0.25 microgram/ml
CNC(=O)CC1NC(=O)c2nc(sc2COC)C(C(C)C)NC(=O)c2csc(n2)-c2ccc(-c3nc(C(=O)NCCNCCC(=O)O)cs3)nc2-c2csc(n2)-c2csc(n2)C(C(O)c2ccccc2)NC(=O)CNC(=O)c2nc1sc2C (stereo not drawn)	32 microgram/ml
CNC(=O)CC1NC(=O)c2nc(sc2COC)C(C(C)C)NC(=O)c2csc(n2)-c2ccc(-c3nc(C(=O)NCCCCCC(=O)O)cs3)nc2-c2csc(n2)-c2csc(n2)C(C(O)c2ccccc2)NC(=O)CNC(=O)c2nc1sc2CO (stereo not drawn)	0,13 microgram/ml

What the record says about CNC(=O)CC1NC(=O)c2nc(sc2COC)C(C(C)C)NC(=O)c2csc(n2)-c2ccc(-c3nc(C(N)=O)cs3)nc2-c2csc(n2)-c2csc(n2)C(C(O)c2ccccc2)NC(=O)CNC(=O)c2nc1sc2C (stereo not drawn) : MIC is 0.13 microgram/ml

What the record says about CNC(=O)CC1NC(=O)c2nc(sc2COC)C(C(C)C)NC(=O)c2csc(n2)-c2ccc(-c3nc(C(=O)NCCN(C)C)cs3)nc2-c2csc(n2)-c2csc(n2)C(C(O)c2ccccc2)NC(=O)CNC(=O)c2nc1sc2C (stereo not drawn) : MIC is 0.5 microgram/ml

What the record says about CNC(=O)CC1NC(=O)c2nc(sc2COC)C(C(C)C)NC(=O)c2csc(n2)-c2ccc(-c3nc(C(=O)NC(CCSC)C(=O)O)cs3)nc2-c2csc(n2)-c2csc(n2)C(C(O)c2ccccc2)NC(=O)CNC(=O)c2nc1sc2C (stereo not drawn) : MIC is 2 microgram/ml
